Reported pKd values for a set of binders
Molecular target: Human SARS-CoV-2_Wuhan S (SmT1) (SARS-CoV-2 (Wuhan), UniProt P0DTC2 14-1208)
Assay: SPR, VHH over immobilised S
pKd: −log10 of the molar value.
Measured parameter: pKd

| Binder | Measured parameter | Readout number |
| --- | --- | --- |
| NRCoV2-S2A4 VHH (VHH) VHH: QVQLVQSGGGLVQAGGSLRLSCAVSGSPFRSNVMEWYRQAPGKQRELVASISTGGSRTYTDSVKGRFTISRDNAKNEAFLQMNSLKPEDTAVYYCHAAARDSHGIYLLDTWGQGTQVTVSS | pKd | 7.89 |
| NRCoV2-20 VHH (VHH) VHH: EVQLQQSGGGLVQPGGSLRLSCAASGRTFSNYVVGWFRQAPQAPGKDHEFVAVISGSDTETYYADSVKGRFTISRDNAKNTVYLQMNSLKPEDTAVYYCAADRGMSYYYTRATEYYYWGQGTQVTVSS | pKd | 8.36 |
